Measured GI50 of individual entries
Test system: OVCAR-8
EXPERIMENT_SUMMARY: NCI tumour cell line growth inhibition, 48 h
The source made the active and inactive calls. Rule as the data show it: active = GI50 up to about 1.1 µM and inactive = higher.
ASSAY_ENDPOINT: GI50

INPUT_SMILES	VALUE_OBSERVED
O=C(NCCCn1ccnc1[N+](=O)[O-])C(=O)NCCCn1ccnc1[N+](=O)[O-]	69.2 µM (inactive)
Cc1cn([C@@H]2O[C@H](CO[Si](C)(C)C(C)(C)C)[C@]3(O[C@H]3C(=O)NN)[C@H]2O[Si](C)(C)C(C)(C)C)c(=O)[nH]c1=O	6.62 µM (inactive)
Cc1ccc2c(sc(-c3ccc4c(c3)sc(-c3ccc(N(C)C)cc3)[n+]4C)[n+]2C)c1S(=O)(=O)O.Cc1ccc2c(sc(-c3ccc4c(c3)sc(-c3ccc5c(c3)sc(-c3ccc(N(C)C)cc3)[n+]5C)[n+]4C)[n+]2C)c1S(=O)(=O)O	> 100 µM (inactive)
